System: metabolism of retinoic acid in human breast cancer cells
method: Inhibition of retinoic acid (RA) metabolism (Example C.1)
Type: cell-based
appliedConditions: MCF-7 human breast cancer cells, 3H-RA as substrate; concentration needed to reduce the amount of metabolites to 50% of the control
The entries below are paired with their reported pIC50.
Please express pIC50 as -log10 of the molar concentration.

Take a look at these entries with their results.
1. CC(C)C(c1ccc(NC(=O)c2cc3ccccc3o2)cc1)n1ccnc1 (racemic)	8.38
2. CCCCOc1ccc(CC(=O)Nc2ccc(C(C(CC)CC)n3ccnc3)cc2)cc1 (racemic)	8.96

Give pIC50 for the following molecule: `C/C(=C\c1ccccc1)C(=O)Nc1ccc(C(C(C)C)(C(C)C)n2ccnc2)cc1` 7.17

Give pIC50 for the following molecule: COc1cc(CC(=O)Nc2ccc(C(C(C)C)n3ccnc3)cc2)ccc1O (centres unmarked) 7.51

Give pIC50 for the following molecule: CC(C)C(c1ccc(NC(=O)C(c2ccccc2)c2ccccc2)cc1)n1ccnc1 (racemic) 7.79

Give pIC50 for the following molecule: CC(Oc1ccccc1)C(c1ccc(NC(=O)Cc2ccc(Cl)cc2)cc1)n1ccnc1 (single isomer, unassigned) 7.08

====

The entries below are paired with their reported pIC50.
Test system: metabolism of retinoic acid in human breast cancer cells
method: Inhibition of retinoic acid (RA) metabolism (Example C.1)
Format: cell-based
appliedConditions: MCF-7 human breast cancer cells, 3H-RA as substrate; concentration needed to reduce the amount of metabolites to 50% of the control
Please express pIC50 as -log10 of the molar concentration.

1. CC(C)C(c1ccc(NC(=O)CSc2ccccc2)cc1)n1ccnc1 (racemic)	8.92

# evaluate next
Give pIC50 for the following molecule: CC(C)C(c1ccc(NC(=O)c2nccc3ccccc23)cc1)n1ccnc1 (stereo not drawn) 8.79

====

Test system: metabolism of retinoic acid in human breast cancer cells
method: Inhibition of retinoic acid (RA) metabolism (Example C.1)
Assay type: cell-based
appliedConditions: MCF-7 human breast cancer cells, 3H-RA as substrate; concentration needed to reduce the amount of metabolites to 50% of the control
pIC50: −log10 of the molar value.
Label scheme for pIC50: low range: < 8; mid range: ≥ 8 and < 9; high range: ≥ 9

# count of solved cases: 5
1) CCC(CC)C(c1ccc(NC(=O)Nc2ccc(OC)c(OC)c2)cc1)n1cncn1 (racemic)	high range
2) CCC(CC)C(c1ccc(NC(=O)c2ccc(OC)nc2)cc1)n1ccnc1 (racemic)	high range
3) C/C(=C\c1ccco1)C(=O)Nc1ccc(C(C(C)C)n2ccnc2)cc1 (racemic)	mid range
4) CC(C)C(c1ccc(NC(=O)Cc2ccccc2)cc1)n1ccnc1 (stereo not shown)	mid range
5) CC(C)C(C(=O)Nc1ccc(C(C(C)C)n2ccnc2)cc1)c1ccccc1 (racemic)	mid range

Could you tell me which band CC(C)C(c1ccc(NC(=O)Cc2ccc(Cl)cc2)cc1)c1cccnc1 (racemic) belongs to? low range

Could you tell me which band CC(=CCCc1ccccc1)C(=O)Nc1ccc(C(C(C)C)n2ccnc2)cc1 (racemic) belongs to? low range

Could you tell me which band CC(C)C(c1ccc(NC(=O)Cc2ccc(O)cc2)cc1)n1cncn1 (stereo not shown) belongs to? mid range

====

System: metabolism of retinoic acid in human breast cancer cells
method: Inhibition of retinoic acid (RA) metabolism (Example C.1)
Assay type: cell-based
appliedConditions: MCF-7 human breast cancer cells, 3H-RA as substrate; concentration needed to reduce the amount of metabolites to 50% of the control
measurementType: IC50 (nM)
The answer is to be given in nM; state only the numeric part.

1) CCC(CC)C(c1ccc(NC(=O)C(O)c2ccc(Cl)cc2)cc1)n1cncn1 (stereo not shown) [Compound 4]	2.11
2) CCC(CC)C(c1ccc(NC(=O)C2COc3ccccc3O2)cc1)n1ccnc1 (mixture of isomers)	0.503
3) CCC(CC)C(c1ccc(NC(=O)Cc2ccc(OC)c(C)c2)cc1)n1cncn1 (single isomer, unassigned) [Compound 86]	0.497
4) CCC(CC)C(c1ccc(NC(=O)Cc2ccc(O)c(OC)c2)cc1)n1ccnc1.O=C(O)C(=O)O (racemic)	1.32
5) CCC(CC)C(c1ccc(NC(=O)Cc2ccc(Cl)cc2)cc1)n1cncn1 (racemic)	0.356

# evaluate next
Give IC50 for the following compound: CCC(C(=O)Nc1ccc(C(C(C)C)n2ccnc2)cc1)c1ccccc1 (mixture of isomers) 6.37
